experimentalSystem: mGluR5 receptor (Sus scrofa, UniProt I3LUI7)
Construct: 450 μg of protein from brain homogenate are incubated with 5 nM^3[H]-MPEP; from tissue; host or cells: pig brain hemispheres without medulla, cerebellum and pons
Sequence (I3LUI7 19-1212): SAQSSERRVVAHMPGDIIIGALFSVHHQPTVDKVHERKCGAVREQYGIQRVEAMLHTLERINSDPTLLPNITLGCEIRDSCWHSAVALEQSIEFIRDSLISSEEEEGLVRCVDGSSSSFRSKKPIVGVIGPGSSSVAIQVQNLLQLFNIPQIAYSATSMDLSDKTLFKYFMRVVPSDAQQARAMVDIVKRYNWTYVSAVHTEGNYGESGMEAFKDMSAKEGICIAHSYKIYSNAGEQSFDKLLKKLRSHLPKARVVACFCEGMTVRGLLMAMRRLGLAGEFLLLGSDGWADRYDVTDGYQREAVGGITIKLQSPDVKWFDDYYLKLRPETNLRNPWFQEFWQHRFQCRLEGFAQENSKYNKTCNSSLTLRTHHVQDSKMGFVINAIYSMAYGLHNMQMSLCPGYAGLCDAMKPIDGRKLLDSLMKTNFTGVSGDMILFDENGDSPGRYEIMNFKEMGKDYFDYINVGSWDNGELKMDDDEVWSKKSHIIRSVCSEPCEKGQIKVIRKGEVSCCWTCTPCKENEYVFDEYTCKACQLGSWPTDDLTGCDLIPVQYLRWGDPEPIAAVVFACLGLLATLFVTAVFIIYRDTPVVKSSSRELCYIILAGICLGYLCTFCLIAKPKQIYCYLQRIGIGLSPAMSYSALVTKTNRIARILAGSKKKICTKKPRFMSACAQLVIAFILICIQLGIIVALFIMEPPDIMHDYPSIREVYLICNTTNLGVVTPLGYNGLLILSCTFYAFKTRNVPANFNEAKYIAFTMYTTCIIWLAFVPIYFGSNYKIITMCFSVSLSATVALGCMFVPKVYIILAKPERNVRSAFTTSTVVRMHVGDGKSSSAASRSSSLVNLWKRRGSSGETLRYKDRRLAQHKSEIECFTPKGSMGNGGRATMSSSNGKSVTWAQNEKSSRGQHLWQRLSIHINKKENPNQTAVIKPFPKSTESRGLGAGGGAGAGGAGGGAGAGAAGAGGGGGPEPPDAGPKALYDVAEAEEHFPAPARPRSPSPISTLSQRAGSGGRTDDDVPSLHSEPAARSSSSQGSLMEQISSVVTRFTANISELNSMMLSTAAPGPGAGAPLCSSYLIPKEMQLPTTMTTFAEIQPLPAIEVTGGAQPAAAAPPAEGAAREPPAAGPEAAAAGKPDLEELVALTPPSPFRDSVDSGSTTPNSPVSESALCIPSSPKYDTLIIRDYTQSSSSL
testProtocol: Affinity for the mGluR5 receptor: displacement of 3[H]-MPEP binding in pig brain homogenate
testSettings: 10 μM compound, 5 nM 3[H]-MPEP
resultType: mGluR5 receptor inhibition of the 3[H]-MPEP binding in % (10 μM) (%)

Cc1cc(C(=O)Nc2noc3ccccc23)no1 [Example 91] ... 35.00

1. CC(C)(C)CC(=O)Nc1noc2ccc(F)cc12 [Example 130]
2. CN(C)c1cccc2onc(NC(=O)C34CC5CC(CC(C5)C3)C4)c12 [Example 172]
Problem: Hi, I'm comparing 1 with 2 and wondering which one has the bigger number for mGluR5 receptor inhibition of the 3[H]-MPEP binding in % (10 μM). Any idea? Mark your selection by writing its label.
Result: 2

I. O=C(Nc1noc2ccc(F)cc12)c1ccc(F)cc1F [Example 131]
II. O=C(Nc1noc2cccc(Cl)c12)C12CC3CC(CC(C3)C1)C2 [Example 151]
Problem: From the items above, decide which of I and II has the lower mGluR5 receptor inhibition of the 3[H]-MPEP binding in % (10 μM) reading. Use the label to indicate which entry you chose.
Result: I
(I: 42.52%, II: 74.05%)

P. O=C(Nc1noc2ccc(F)cc12)c1ccc2ccccc2c1 [Example 106]
Q. O=C(Nc1noc2cc(F)ccc12)c1cccc2ccccc12 [Example 101]
Problem: Given the listed items, does P or Q have the lesser reported mGluR5 receptor inhibition of the 3[H]-MPEP binding in % (10 μM)? Field: selected label. Fill in the label of the entry you choose.
Result: P

====

experimentalSystem: mGluR5 receptor (Sus scrofa)
Construct: 450 μg of protein from brain homogenate are incubated with 5 nM^3[H]-MPEP; from tissue; host or cells: pig brain hemispheres without medulla, cerebellum and pons
testProtocol: Affinity for the mGluR5 receptor: displacement of 3[H]-MPEP binding in pig brain homogenate
testSettings: 10 μM compound, 5 nM 3[H]-MPEP
resultType: inhibition at 10 µM (%)

O=C(Nc1noc2ccc(Br)cc12)c1c(F)cccc1F [Example 136] ... 40.8
O=C(Nc1noc2ccc(Br)cc12)c1ccccc1Br [Example 140] ... 38.4
O=C(Nc1noc2ccc(F)cc12)c1ccccc1Br [Example 103] ... 41.2
COc1cccc(C(=O)Nc2noc3ccc(Br)cc23)c1 [Example 142] ... 37.8
O=C(Nc1noc2cc(Cl)ccc12)c1ccccc1Cl [Example 108] ... 34.7

====

experimentalSystem: NA transporter (Rattus norvegicus, UniProt Q63380)
Construct: from tissue; host or cells: rat hypothalamus synaptosomes (P2 fraction)
Sequence (Q63380 1-617): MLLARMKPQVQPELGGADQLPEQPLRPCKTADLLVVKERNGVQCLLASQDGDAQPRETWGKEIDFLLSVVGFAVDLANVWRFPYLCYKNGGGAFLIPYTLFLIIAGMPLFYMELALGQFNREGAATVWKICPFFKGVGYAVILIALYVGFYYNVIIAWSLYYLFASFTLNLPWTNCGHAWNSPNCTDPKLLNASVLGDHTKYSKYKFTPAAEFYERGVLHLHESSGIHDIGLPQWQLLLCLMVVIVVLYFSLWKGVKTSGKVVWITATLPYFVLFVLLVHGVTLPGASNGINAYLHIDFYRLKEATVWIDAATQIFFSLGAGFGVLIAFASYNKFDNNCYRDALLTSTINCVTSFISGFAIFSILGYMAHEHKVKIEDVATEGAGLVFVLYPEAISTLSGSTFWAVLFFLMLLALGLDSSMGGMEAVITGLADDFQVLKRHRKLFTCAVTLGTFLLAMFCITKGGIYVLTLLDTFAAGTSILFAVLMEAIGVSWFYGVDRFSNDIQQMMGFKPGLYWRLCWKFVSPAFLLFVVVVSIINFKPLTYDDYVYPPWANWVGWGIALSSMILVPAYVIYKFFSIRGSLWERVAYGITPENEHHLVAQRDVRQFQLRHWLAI
testProtocol: Noradrenaline (NA) uptake inhibition in rat brain synaptosomes (hypothalamus), [3H]-NA
Assay type: biochemical
testSettings: conc. 10 μM
resultType: inhibition at 10 µM (%)

COc1cccc(C(=O)Nc2noc3c(F)cccc23)c1 ... 66
O=C(Nc1noc2cccc(OCC(F)(F)F)c12)c1ccc(F)cc1C(F)(F)F ... 70
CCCc1ccc(C(=O)Nc2noc3cccc(N(C)C)c23)cc1 ... 73
O=C(Nc1noc2c(F)ccc(F)c12)c1ccccc1C(F)(F)F ... 71
O=C(Nc1noc2cc(Cl)ccc12)c1ccc(I)cc1 ... 61
O=C(Nc1noc2c(F)cccc12)c1ccc(F)c(F)c1 ... 67
O=C(Nc1noc2c(F)cccc12)c1cccnc1Cl ... 72
O=C(Nc1noc2cc(Br)ccc12)c1cc(F)cc(C(F)(F)F)c1 ... 65
CN(C)c1cccc2onc(NC(=O)C(c3ccccc3)c3ccccc3)c12 ... 70
COc1cccc2onc(NC(=O)C(c3ccccc3)c3ccccc3)c12 ... 63
